experiment: in vitro; conditions: PAMPA, Papp
measuredAttribute: Papp at 500 uM (×10⁻⁶ cm/s)

I = CCCCC[C@@H]1OC(=O)[C@@H](C)N(C)C1=O
II = CCCCC[C@H](OC(=O)[C@@H](C)N(C)C(=O)[C@H](CCCCC)OC(=O)[C@@H](C)N(C)C(=O)[C@H](CCCCC)OC(=O)[C@@H](C)N(C)C(=O)OC(C)(C)C)C(=O)OCc1ccccc1
Lab note: check whether I or II shows the higher recorded Papp at 500 uM. Mark your selection by writing its label. I
(I: 14.6 ×10⁻⁶ cm/s, II: 3.54 ×10⁻⁶ cm/s)
